Ref: paper PMC10812921

# target_desc: POU1 (OCT1 POU domain) (human, UniProt P14859 260-458)
# Sequence (P14859 260-458): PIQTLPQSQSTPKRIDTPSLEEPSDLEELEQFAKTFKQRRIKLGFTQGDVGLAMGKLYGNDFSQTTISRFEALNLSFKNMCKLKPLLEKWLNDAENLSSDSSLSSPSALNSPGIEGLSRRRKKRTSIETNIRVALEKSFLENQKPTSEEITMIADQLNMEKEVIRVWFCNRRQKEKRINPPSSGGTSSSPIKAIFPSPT
# assay_comment: EMSA-SELEX-seq; no BOB1; 20 mM Tris-HCl pH 7.6, 140 mM NaCl, 10% glycerol, 0.5 mM EDTA, 0.05% Triton X-100, 0.1 mg/mL BSA, 0.1 mg/mL poly(dI-dC), 5 mM DTT, room temperature, 20 min; high values mean tight binding
# test_conditions: protein: recombinant; dsDNA, one strand shown
Kindly state binding signal for each of the entries shown.

Which binding signal is reported with POU1 (OCT1 POU domain) (human, UniProt P14859 260-458) for this entry: ATCCAAAG ? 0.0427 % of ANNNNAAN 8-mers

# get_value(readout= binding signal, system= POU1 (OCT1 POU domain) (human, UniProt P14859 260-458)) for ATGCGAAA 0.0835 % of ANNNNAAN 8-mers

Query binding signal on POU1 (OCT1 POU domain) (human, UniProt P14859 260-458) for ATGTTAAA 0.212 % of ANNNNAAN 8-mers

Short answer please: binding signal, POU1 (OCT1 POU domain) (human, UniProt P14859 260-458), entry AGGCCAAC 0.0107 % of ANNNNAAN 8-mers

Missing value: binding signal, POU1 (OCT1 POU domain) (human, UniProt P14859 260-458), entry AGGCTAAA . Fill in? 0.0381 % of ANNNNAAN 8-mers

Field: binding signal (POU1 (OCT1 POU domain) (human, UniProt P14859 260-458)). Entry: ACCCAAAT 0.0477 % of ANNNNAAN 8-mers

API: value(readout= binding signal, system= POU1 (OCT1 POU domain) (human, UniProt P14859 260-458), query= AGTGGAAA ) 0.0542 % of ANNNNAAN 8-mers

Please tell me: binding signal of AGAAAAAC , system POU1 (OCT1 POU domain) (human, UniProt P14859 260-458)? 0.04 % of ANNNNAAN 8-mers

Please provide the recorded binding signal for ATGGAAAG , tested on POU1 (OCT1 POU domain) (human, UniProt P14859 260-458). 0.148 % of ANNNNAAN 8-mers

Given the entry AGTCCAAT , what binding signal was observed with POU1 (OCT1 POU domain) (human, UniProt P14859 260-458)? 0.0385 % of ANNNNAAN 8-mers

Checklist item: binding signal tested on POU1 (OCT1 POU domain) (human, UniProt P14859 260-458), entry ATCAGAAC , value? 0.0214 % of ANNNNAAN 8-mers

Provide value of binding signal for this record tested with POU1 (OCT1 POU domain) (human, UniProt P14859 260-458): ACTGAAAC 0.0164 % of ANNNNAAN 8-mers

Query binding signal on POU1 (OCT1 POU domain) (human, UniProt P14859 260-458) for AGTCAAAG 0.116 % of ANNNNAAN 8-mers

Request - read-out binding signal | tested on POU1 (OCT1 POU domain) (human, UniProt P14859 260-458) | sequence ACATGAAC 0.0244 % of ANNNNAAN 8-mers

Give the reported binding signal for AGGAAAAG (system: POU1 (OCT1 POU domain) (human, UniProt P14859 260-458)). 0.1 % of ANNNNAAN 8-mers

Checklist item: binding signal tested on POU1 (OCT1 POU domain) (human, UniProt P14859 260-458), entry ATCTGAAA , value? 0.0374 % of ANNNNAAN 8-mers

Find binding signal (POU1 (OCT1 POU domain) (human, UniProt P14859 260-458)) for the entry ATGTCAAG 0.0378 % of ANNNNAAN 8-mers

Record lookup: for POU1 (OCT1 POU domain) (human, UniProt P14859 260-458), what binding signal belongs to ATGTTAAT ? 1.39 % of ANNNNAAN 8-mers

Report binding signal for ACAGGAAA tested on POU1 (OCT1 POU domain) (human, UniProt P14859 260-458). 0.0526 % of ANNNNAAN 8-mers

Form entry - test system: POU1 (OCT1 POU domain) (human, UniProt P14859 260-458); read-out: binding signal; sequence: ACCGCAAC 0.0114 % of ANNNNAAN 8-mers

// fetch POU1 (OCT1 POU domain) (human, UniProt P14859 260-458) binding signal for ACTTTAAC 0.032 % of ANNNNAAN 8-mers

Give POU1 (OCT1 POU domain) (human, UniProt P14859 260-458) binding signal for ATTCGAAT 0.117 % of ANNNNAAN 8-mers
